The origin of these recorded values is patent US9259401B2.

assay: Comparative bioavailability study, curcumin in plasma by HPLC; assay type: in vivo, human; conditions: human, plasma, po, 1 gm, time 6 hr; 1 gm curcuminoids oral; read-out: Min plasma concentration
measured.metric: concentration at 6 hr (ng/mL)
Just the number in ng/mL, nothing appended.

Query :: Query: concentration at 6 hr; subject: `COc1cc(C=CC(=O)CC(=O)C=Cc2ccc(O)c(OC)c2)ccc1O`
Result :: 2.05

====

assay: Comparative bioavailability study, curcumin in plasma by HPLC; assay type: in vivo, human; settings: human, plasma, po, 1 gm, time 2 hr; 1 gm curcuminoids oral; read-out: Min plasma concentration
measured.metric: concentration at 2 hr (ng/mL)
Just the number in ng/mL, nothing appended.

Query :: Query: concentration at 2 hr; subject: `COc1cc(C=CC(=O)CC(=O)C=Cc2ccc(O)c(OC)c2)ccc1O`
Result :: 8.39

====

experiment: Comparative bioavailability study, curcumin in plasma by HPLC; format: in vivo, human; conditions: human, plasma, po, 1 gm, time 0 hr (prior to dosing); 1 gm curcuminoids oral; read-out: Mean plasma concentration
measured.metric: concentration at 0 hr (ng/mL)
Just the number in ng/mL, nothing appended.

Query :: Query: concentration at 0 hr; subject: `COc1cc(C=CC(=O)CC(=O)C=Cc2ccc(O)c(OC)c2)ccc1O`
Result :: 0

====

experiment: Comparative bioavailability study, curcumin in plasma by HPLC; type: in vivo, human; conditions: human, plasma, po, 1 gm, time 1 hr; 1 gm curcuminoids oral; read-out: Mean plasma concentration
measured.metric: concentration at 1 hr (ng/mL)
Just the number in ng/mL, nothing appended.

Query :: Query: concentration at 1 hr; subject: COc1cc(C=CC(=O)CC(=O)C=Cc2ccc(O)c(OC)c2)ccc1O [Curcumin]
Result :: 5.46

====

experiment: Comparative bioavailability study, curcumin in plasma by HPLC; type: in vivo, human; conditions: human, plasma, po, 1 gm, time 24 hr; 1 gm curcuminoids oral; read-out: Geometric Mean plasma concentration
measured.metric: concentration at 24 hr (ng/mL)
Just the number in ng/mL, nothing appended.

Query :: Query: concentration at 24 hr; subject: `COc1cc(C=CC(=O)CC(=O)C=Cc2ccc(O)c(OC)c2)ccc1O`
Result :: 2.23

====

experiment: Comparative bioavailability study, curcumin in plasma by HPLC; type: in vivo, human; conditions: human, plasma, po, 1 gm, time 24 hr; 1 gm curcuminoids oral; read-out: Min plasma concentration
measured.metric: concentration at 24 hr (ng/mL)
Just the number in ng/mL, nothing appended.

Query :: Query: concentration at 24 hr; subject: COc1cc(C=CC(=O)CC(=O)C=Cc2ccc(O)c(OC)c2)ccc1O [Curcumin]
Result :: 0.53

====

assay: Comparative bioavailability study, curcumin in plasma by HPLC; format: in vivo, human; details: human, plasma, po, 1 gm, time 2 hr; 1 gm curcuminoids oral; read-out: Median plasma concentration
measured.metric: concentration at 2 hr (µg/mL)
Just the number in µg/mL, nothing appended.

Query :: Query: concentration at 2 hr; subject: `COc1cc(C=CC(=O)CC(=O)C=Cc2ccc(O)c(OC)c2)ccc1O`
Result :: 0.0149

====

test: Comparative bioavailability study, curcumin in plasma by HPLC; type: in vivo, human; conditions: human, plasma, po, 1 gm, 1 gm curcuminoids oral; read-out: AUCT, Median
measured.metric: AUC(0-t) (ng·h/mL)
Just the number in ng·h/mL, nothing appended.

Query :: Query: AUC(0-t); subject: `COc1cc(C=CC(=O)CC(=O)C=Cc2ccc(O)c(OC)c2)ccc1O`
Result :: 77.8

====

experiment: Comparative bioavailability study, curcumin in plasma by HPLC; type: in vivo, human; conditions: human, plasma, po, 1 gm, 1 gm curcuminoids oral; read-out: AUCT, Mean
measured.metric: AUC(0-t) (ng·h/mL)
Just the number in ng·h/mL, nothing appended.

Query :: Query: AUC(0-t); subject: `COc1cc(C=CC(=O)CC(=O)C=Cc2ccc(O)c(OC)c2)ccc1O`
Result :: 98.8

====

test: Comparative bioavailability study, curcumin in plasma by HPLC; type: in vivo, human; settings: human, plasma, po, 1 gm, time 4 hr; 1 gm curcuminoids oral; read-out: Min plasma concentration
measured.metric: concentration at 4 hr (ng/mL)
Just the number in ng/mL, nothing appended.

Query :: Query: concentration at 4 hr; subject: COc1cc(C=CC(=O)CC(=O)C=Cc2ccc(O)c(OC)c2)ccc1O [Curcumin]
Result :: 0.75

====

assay: Comparative bioavailability study, curcumin in plasma by HPLC; assay type: in vivo, human; conditions: human, plasma, po, 1 gm, 1 gm curcuminoids oral; read-out: AUCINF, Geometric Mean
measured.metric: AUC(0-inf) (ng·h/mL)
Just the number in ng·h/mL, nothing appended.

Query :: Query: AUC(0-inf); subject: `COc1cc(C=CC(=O)CC(=O)C=Cc2ccc(O)c(OC)c2)ccc1O`
Result :: 80.3

====

assay: Comparative bioavailability study, curcumin in plasma by HPLC; assay type: in vivo, human; details: human, plasma, po, 1 gm, time 6 hr; 1 gm curcuminoids oral; read-out: Median plasma concentration
measured.metric: concentration at 6 hr (ng/mL)
Just the number in ng/mL, nothing appended.

Query :: Query: concentration at 6 hr; subject: COc1cc(C=CC(=O)CC(=O)C=Cc2ccc(O)c(OC)c2)ccc1O [Curcumin]
Result :: 2.77

====

assay: Comparative bioavailability study, curcumin in plasma by HPLC; format: in vivo, human; conditions: human, plasma, po, 1 gm, time 1 hr; 1 gm curcuminoids oral; read-out: Median plasma concentration
measured.metric: concentration at 1 hr (ng/mL)
Just the number in ng/mL, nothing appended.

Query :: Query: concentration at 1 hr; subject: `COc1cc(C=CC(=O)CC(=O)C=Cc2ccc(O)c(OC)c2)ccc1O`
Result :: 1.66

====

experiment: Comparative bioavailability study, curcumin in plasma by HPLC; assay type: in vivo, human; conditions: human, plasma, po, 1 gm, time 4 hr; 1 gm curcuminoids oral; read-out: Geometric Mean plasma concentration
measured.metric: concentration at 4 hr (ng/mL)
Just the number in ng/mL, nothing appended.

Query :: Query: concentration at 4 hr; subject: COc1cc(C=CC(=O)CC(=O)C=Cc2ccc(O)c(OC)c2)ccc1O [Curcumin]
Result :: 4.89

====

assay: Comparative bioavailability study, curcumin in plasma by HPLC; format: in vivo, human; conditions: human, plasma, po, 1 gm, 1 gm curcuminoids oral; read-out: AUCINF, Median
measured.metric: AUC(0-inf) (ng·h/mL)
Just the number in ng·h/mL, nothing appended.

Query :: Query: AUC(0-inf); subject: `COc1cc(C=CC(=O)CC(=O)C=Cc2ccc(O)c(OC)c2)ccc1O`
Result :: 77.5

====

assay: Comparative bioavailability study, curcumin in plasma by HPLC; format: in vivo, human; details: human, plasma, po, 1 gm, time 0 hr; 1 gm curcuminoids oral; read-out: Geometric Mean plasma concentration
measured.metric: concentration at 0 hr (ng/mL)
Just the number in ng/mL, nothing appended.

Query :: Query: concentration at 0 hr; subject: COc1cc(C=CC(=O)CC(=O)C=Cc2ccc(O)c(OC)c2)ccc1O [Curcumin]
Result :: 0

====

test: Comparative bioavailability study, curcumin in plasma by HPLC; assay type: in vivo, human; conditions: human, plasma, po, 1 gm, time 8 hr; 1 gm curcuminoids oral; read-out: Min plasma concentration
measured.metric: concentration at 8 hr (ng/mL)
Just the number in ng/mL, nothing appended.

Query :: Query: concentration at 8 hr; subject: `COc1cc(C=CC(=O)CC(=O)C=Cc2ccc(O)c(OC)c2)ccc1O`
Result :: 1.19

====

experiment: Comparative bioavailability study, curcumin in plasma by HPLC; type: in vivo, human; conditions: human, plasma, po, 1 gm, time 8 hr; 1 gm curcuminoids oral; read-out: Max plasma concentration
measured.metric: concentration at 8 hr (ng/mL)
Just the number in ng/mL, nothing appended.

Query :: Query: concentration at 8 hr; subject: COc1cc(C=CC(=O)CC(=O)C=Cc2ccc(O)c(OC)c2)ccc1O [Curcumin]
Result :: 36.1

====

test: Comparative bioavailability study, curcumin in plasma by HPLC; format: in vivo, human; details: human, plasma, po, 1 gm, time 1 hr; 1 gm curcuminoids oral; read-out: Min plasma concentration
measured.metric: concentration at 1 hr (ng/mL)
Just the number in ng/mL, nothing appended.

Query :: Query: concentration at 1 hr; subject: `COc1cc(C=CC(=O)CC(=O)C=Cc2ccc(O)c(OC)c2)ccc1O`
Result :: 0.05

====

experiment: Comparative bioavailability study, curcumin in plasma by HPLC; assay type: in vivo, human; conditions: human, plasma, po, 1 gm, time 0 hr; 1 gm curcuminoids oral; read-out: Min plasma concentration
measured.metric: concentration at 0 hr (ng/mL)
Just the number in ng/mL, nothing appended.

Query :: Query: concentration at 0 hr; subject: `COc1cc(C=CC(=O)CC(=O)C=Cc2ccc(O)c(OC)c2)ccc1O`
Result :: 0
